Conditions: 0.5 h, pH 7.4
assay.metric: %GSH remaining at 30 min

| entry.smiles | %GSH remaining at 30 min |
| --- | --- |
| COc1cccc2c1C(=O)C=CC2=O | 27 (14) % |
| O=C1C=C(Cl)C(=O)C=C1Cl | 0% |
| COC1=CC(=O)C(OC)=C(c2ccc(C)cc2)C1=O | 49 (35) % |
| COC1=CC(=O)C=C(OC)C1=O | 0% |
| O=C1C=CC(=O)c2cc(O)ccc21 | 32 (22) % |

Quick one: give me %GSH remaining at 30 min for each item below, same order please.
1. O=C1C=CC(=O)c2c(O)ccc(O)c21
2. CC1=CC(=O)C=C(C)C1=O

Result:
1: 39 (26) %; 2: 0%

---

Conditions: 1 h, pH 7.4
assay.metric: %GSH remaining at 1 hour

Field: example entries. Status: answers known.
| entry.smiles | %GSH remaining at 1 hour |
| --- | --- |
| O=C1C=CC(=O)c2c(O)ccc(O)c21 | 39 (26) % |
| COc1cccc2c1C(=O)C=CC2=O | 27 (14) % |

Quick one: give me %GSH remaining at 1 hour for each item below, same order please.
1. COC1=CC(=O)C(OC)=C(c2ccc(C)cc2)C1=O
2. O=C1C=CC(=O)c2cc(O)ccc21

Result:
49 (35) %
32 (22) %
